EXPERIMENT NOTES: protease stability score; higher = more stable; yeast display proteolysis, trypsin and chymotrypsin;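 note: relative to predicted unfolded state with 0 unfolded-like and 1 meaning tenfold more protease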
Readings of protease stability score for the listed sequences

[
  {
    "RESIDUES": "SEEKHDSEKLSHLLDHEWLTGDEESFRKLADPHVKSNINGVRLHGWRELHQFLDEHFNHLGAKIEDSDTEHIHTQGDKAFIHSTFVLLVNGKRIELETFFRSRKFDGRWVLTEVHVH",
    "protease stability score": 0.521
  },
  {
    "RESIDUES": "RKEEDEARKFLHTYIELMRTGDEDNLKEFVDPHVRLEVGDKRVVGWDRYVENVVELIEKVPNLRIHIDSVRAIGNWLHVDGTLIQGDKHREIHLHLQKIDGRWILTHQHVR",
    "protease stability score": 1.34
  },
  {
    "RESIDUES": "SHKEEEFRRLFELTIRMFLTGDEDVMSKLMDPNVRLQVHVNGKNIEIHGWENLIKTFIDLGIDHWEFKRSDIIGDFVMLDGRIEFNGRRSNTELRFLIIDGRVKSIIIKIE",
    "protease stability score": 2.05
  },
  {
    "RESIDUES": "DEDEKIARDQLEHFFHSVQTGNEDELRRLLDPNTYIDINGRTYHGREEVVKWMVHWFEHARLRRVHIRHSRSIGDKIILDTKMNVDINGVERHLDVNVIYLKVDGKWINHSEIVK",
    "protease stability score": 1.56
  },
  {
    "RESIDUES": "SEEERLIIEVMKDFEHSHRTGDWRRILKNLDPNTRHEFNGVEFHGMEEVVRFWIELKDEIRIHHIEIESINHVGDKAHMNVRRDTEVNGKREDVRVQVDLRVINGRIKSVIIRIE",
    "protease stability score": 0.844
  },
  {
    "RESIDUES": "DEEEKHIRKMAEDLKRAFATGDWELLLEMFDPDVRINIIVNGRIIEEHGMENHVRKHVELGITVRLKDEHVESQGNWAHHEGRLEVNVNGKEKSFDVHINLLIVNGRLKESHLKIE",
    "protease stability score": 2.07
  },
  {
    "RESIDUES": "DEERKESQKALELMLELFQTGDEEELSKFADPHVRLEFRVGDKRFEIHGREEVSRFFHELIWRIKNLRLTRHNDEVQGEKVIIHFELRQGDKRSEINIIAIKINGRWFIKHETVILL",
    "protease stability score": 1.62
  },
  {
    "RESIDUES": "DEDERFTKFAWELLVKALVTGDEDSLKDLFDPHARIFYNGRINHGRESFVKHLMEIRFKRIEMRRFDFFDGRVRMEGEVEGEVDGKEDHYRIEIVVKKYDGRWELKEFRLV",
    "protease stability score": 1.68
  },
  {
    "RESIDUES": "DEREEIIRKALELFIFSMKTGDEHTLTELLDPNVRLLVGDKEFHGREVFHILIQQFKNIRVEHFEHKDWYEQGDKMRITGRLTFRQGDKRTEIDTTLIILKINGRWIMHDIVIS",
    "protease stability score": 2.17
  },
  {
    "RESIDUES": "HEDERDAEEMLRLIEEAVYTGDEDLTKYLMDPNVRIHVGDKEFHGRDFLIMRLLEIRHHRFRLELHDIRIQGNKVILDVRWRLDGEINGQRFDDTWDVIIIAEKVNGQWRVQTLIIR",
    "protease stability score": 2.59
  },
  {
    "RESIDUES": "SEEDTERTERFELMLHSWLTGDEEFWEKNADPNARLKLLVNGRDIRFHGREMVSEAIRKTLDDLGVDHRRIEHKEVQGDKVHIHQKIDVGDKELKVRIVVVVINGRNEMIIVEVI",
    "protease stability score": 2.26
  }
]

###

EXPERIMENT NOTES: protease stability score; higher = more stable; yeast display proteolysis, trypsin and chymotrypsin;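 note: relative to predicted unfolded state with 0 unfolded-like and 1 meaning tenfold more protease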
ENDPOINT LABEL: protease stability score

[
  {
    "RESIDUES": "DEEEDDVRRLIERFQHNFDTGNWHMLEHLVDPHARINFDGVESHGMELIVHVNEHMRIHDTHIRDIRIDVVGDKVFVENIVRVESEINGQHRDVEMRISMVITKVNGRWLIKEIRIKIH",
    "OBS VALUE": 0.974
  },
  {
    "RESIDUES": "SELEEIAEEVARRFSHFIETGDEEKLWKYFDPHVKIDIDIDGRTKELHGMERFVFFIRYLGLDRVELRDHRIEIQGEKAILDGTTHINGRTRKTNFHIFVFNGRIKFMQVHII",
    "OBS VALUE": 1.48
  },
  {
    "RESIDUES": "SEEDKEVKFFMERLNHLLLTGDEELIMEMLDPNARMTINGVDTHGRETLSKLWTDKLRHLRLKQIHIHDWRSINGRADNKGHERGFVGDKEDNWESELLFVFVNGRLKSISVHLR",
    "OBS VALUE": 1.21
  },
  {
    "RESIDUES": "SEDEQQALEIIRQWVEFVRTGDEDSVRRLLDPNVRYEVNGREFHGRELVVRILWEIVYHLGVKHVDNKVEHMEIQGEFVKVETTMILRYNGRTLYIDTRIIIFKIDGRWVFRSIEEK",
    "OBS VALUE": 1.63
  },
  {
    "RESIDUES": "DEDHKLLEKFYRIWVEMFKTGDEERWKHLADPDARSDINGVDFIGRDTVSKIMESFLRKMGFDHMEIRRFDFQGEKIKSDVVLDFNGRDVRTEIHIIVVDGRIKEERFRVT",
    "OBS VALUE": 0.192
  }
]

###

EXPERIMENT NOTES: protease stability score; higher = more stable; yeast display proteolysis, trypsin and chymotrypsin;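 note: relative to predicted unfolded state with 0 unfolded-like and 1 meaning tenfold more protease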

[
  {
    "RESIDUES": "SEEEEFLEKLMREFVHDLLTGDEDRIRELADPHVKFEMDVNGVRFRAHGREEMLRELRRFWKEIRVKHIQTHDVKNVGDKAHSDVREVVEVDGREERHESEIIVVTINGRMQSVVLIFK",
    "protease stability score": 1.52
  },
  {
    "RESIDUES": "SELEEENRQALKESLREWETGDEKRLHENADPNARLQYGDKHYHGRENVSHMLTHIIEKFGIDHMRVRDFRVQGEKVETHVELRVGDKHLHIRIITMKVNGKWLFHSVHMHIE",
    "protease stability score": 0.997
  },
  {
    "RESIDUES": "DDKKQFLDHAINRLIRALLTGDWHILFRLLDPHVRMIQGDKEYHGRELWREIYFQDIQRVPNLTFLIKDYHIDLQGDKLRIEIEGELIIDGVNIHMEIISEHTKVNGRWSIHHLEIRHQ",
    "protease stability score": 1.33
  },
  {
    "RESIDUES": "DEDEERMEHMIHLLDHALETGDWRTISKLIDPHVRLEVNGVNFVGREEIITFLLEIRMSSRIHIKDFRVVGDKLEMEIDSHIDLHYNGKTYQTRVESRLIIKKVNGRWILQESSER",
    "protease stability score": 1.15
  },
  {
    "RESIDUES": "SEDEEAVRRLIRMLVEWESTGDFESVLRLFDPHARYRIDGVDLHGRHAWERLYKEIRINSVRVKRIEMQGDKVHVDSRLRGEIDGRETDLEVEIIIRKVNGRWVIEEVRIH",
    "protease stability score": 2.2
  },
  {
    "RESIDUES": "SEDDSDLEEYLRLWVKAWMTGDEDLLRTLLDPHTRFQSHVNGKEVERHGMEVVSHWLRKFKNIRFEVHHVHVVNGVLYHETRVKFDGVRIETELNAIVVDGKNKFLNIHIK",
    "protease stability score": 0.299
  },
  {
    "RESIDUES": "SEEEELARHSIEVMIRLYETGDWDSSVDMADPHTRVHINGRDLIGREFYSEWSKEHLKRYKNATIILEDHEVQGNKVKVRIRIIVGDKESEIIFYILKINGRWIWHTVEVR",
    "protease stability score": 2.19
  },
  {
    "RESIDUES": "DEEKKANHFNKEFDRNVQRNNETELRKMVDPNARVNVGEQNYSGRNKMVKIITDWLRKYDKFTIDVRRIDVHGNRIFIDFEMVVVSNGQRRTTEIRVVVEEHNGRLHIRVWEIT",
    "protease stability score": 1.03
  },
  {
    "RESIDUES": "DEHERLLIKIARIITNLLLTGDEDIMEELADPNVRFELDFNGVDIHLIGMDFWRHNLEHWWVDHFRLEDVKIQGDYAHLKLNVHMEINGRRHETHTRLSIVVVNGKLKSMRFHLI",
    "protease stability score": 1.2
  },
  {
    "RESIDUES": "SEDEDAFNELLKIHVEALHTGDWRSIRELLDPNARVRIDGKEYVGRESVEEHLRRIKNLTIHEIRIDDIRIQGDYVHVDGHVRGHFNGQEELHHVEFIMLKVNGRWRIKEIRIK",
    "protease stability score": 2.26
  },
  {
    "RESIDUES": "HDREKIAITFLKFLIHWHLTGNEDHLRENIDPHVRIRIHIDGKNNHLVGMEDWYKWVREELERADHLELRLDDVDVQGDKLHSDITNIIRIDGKTIVRKVHVHLDVVNGQVKSIEIEIR",
    "protease stability score": 2.54
  }
]

Source: the NTF2 design screens of Basanta et al. (2020)
